# Test system: 60 different human tumor cell lines
# conditionSet: read-out: LC50; HCC-2998 (Colon Cancer), five dose
measurementName: CC50

The recorded CC50 for entry "C[C@]12CCc3nc(Nc4ccc(O)cc4)sc3C1=CC[C@@H]1[C@@H]2CC[C@]2(C)C(=O)CC[C@@H]12" equals > 100 µM

molecule "C[C@]12CCc3nc(N)sc3C1=CC[C@@H]1[C@@H]2CC[C@]2(C)C(=NNC(N)=O)CC[C@@H]12" , CC50 observed: 6.15 µM

====

# System: 60 different human tumor cell lines
# measurementProtocol: cells
# conditionSet: NCI-H226, read-out: LC50
measurementName: CC50

Known CC50 results, listed for orientation:
C[C@]12CC[C@H]3[C@@H](CC=C4c5sc(-c6ccc(O)cc6)nc5CC[C@@]43C)[C@@H]1CC[C@@H]2O > 100 µM
C[C@]12CCc3sc(NCCc4ccccc4)nc3C1=CC[C@@H]1[C@@H]2CC[C@]2(C)C(=O)CC[C@@H]12 > 100 µM
C[C@]12CC[C@H]3[C@@H](CC=C4c5sc(Nc6ccccc6)nc5CC[C@@]43C)[C@@H]1CC[C@@H]2O > 100 µM
C[C@]12CCc3sc(Nc4cccc(O)c4)nc3C1=CC[C@@H]1[C@@H]2CC[C@]2(C)C(=O)CC[C@@H]12 > 100 µM

Could you now consider this next compound?
Form field, CC50 with 60 different human tumor cell lines, item "C[C@]12CCc3sc(Nc4ccc(OC(F)(F)F)cc4)nc3C1=CC[C@@H]1[C@@H]2CC[C@]2(C)C(=O)CC[C@@H]12" : > 100 µM

====

Listed molecules paired with reported TGI
# Tested on: 60 different human tumor cell lines
# conditionSet: DU-145 (Prostate Cancer), five dose
Could you keep your reply to the number by itself?

molecule	TGI
C[C@]12CCc3nc(N)sc3C1=CC[C@@H]1[C@@H]2CC[C@]2(C)C(=NNC(N)=O)CC[C@@H]12 [IVb.1]	3.41E−6

Looking up C[C@]12CCc3nc(Nc4ccc(O)cc4)sc3C1=CC[C@@H]1[C@@H]2CC[C@]2(C)C(=O)CC[C@@H]12 [IIa.35] , I found its TGI recorded as 3.14E−6

TGI reported for this molecule C[C@]12CCc3sc(Nc4cccc(O)c4)nc3C1=CC[C@@H]1[C@@H]2CC[C@]2(C)C(=O)CC[C@@H]12 [IIa.17] : 4.09E−5

Record C[C@]12CC[C@H]3[C@@H](CC=C4c5sc(Nc6ccccc6)nc5CC[C@@]43C)[C@@H]1CC[C@@H]2O [IIIa.10] . Reported TGI: 3.62E−6

====

Quick list: GI50 per entry.
# Tested on: 60 different human tumor cell lines
# measurementProtocol: cells
# conditionSet: SW-620
# number only, unit nM dropped from output

C[C@]12CCc3sc(Nc4ccc(F)cc4F)nc3C1=CC[C@@H]1[C@@H]2CC[C@]2(C)C(=O)CC[C@@H]12 2400

Record summary for "C[C@]12CCc3sc(NCCc4ccccc4)nc3C1=CC[C@@H]1[C@@H]2CC[C@]2(C)C(=O)CC[C@@H]12" : reported GI50 = 2300

Recorded result, "C[C@]12CCc3sc(Nc4cccc(O)c4)nc3C1=CC[C@@H]1[C@@H]2CC[C@]2(C)C(=O)CC[C@@H]12" , GI50: 3380

Summary for this compound, "C[C@]12CC[C@H]3[C@@H](CC=C4c5sc(-c6ccc(O)cc6)nc5CC[C@@]43C)[C@@H]1CC[C@@H]2O" : GI50 is 8400

compound "C[C@]12CC[C@H]3[C@@H](CC=C4c5sc(Nc6ccccc6)nc5CC[C@@]43C)[C@@H]1CC[C@@H]2O" , GI50 observed: 2270

Short answer for "C[C@]12CCc3sc(Nc4ccc(OC(F)(F)F)cc4)nc3C1=CC[C@@H]1[C@@H]2CC[C@]2(C)C(=O)CC[C@@H]12" : GI50 was 2210

Hey, just so you know, these numbers are from patent US20250296953A1.
